- Test system: KB-3-1
- TEST_PROTOCOL: Cytotoxic Profiling of Annotated Libraries Using Quantitative High-Throughput Screening (AID 1296008); further: on the % scale 0 is the no-effect control and ±100 the full control effect; nearly all actives have a fitted effect of over 60% in size
- STUDY_CONDITIONS: Five cell lines viability, CellTiter-Glo ATP luminescence, 48-72 h; stronger effect = lower value
Inconclusive results are not listed. Calls of active or inactive are those of the source. The call rests on the fitted dose curve; in most records, active means well fitted inhibition curve with a large enough effect; inconclusive means small, poorly fitted or top-dose-only effect; inactive means flat fitted curve, though single readings scatter.
Each entry below lists one item and its recorded max response value.
ASSAY_METRIC: max response

{"columns": ["TEST_SMILES", "TESTED_TARGET", "ASSAY_METRIC", "READOUT_VALUE"],
 "data": [
  ["C[C@@H]1CCN(C(=O)CC#N)C[C@H]1N(C)c1ncnc2[nH]ccc12", "KB-3-1", "max response", "-5.04% (inactive)"],
  ["COc1ccc2c(Oc3ccc(NC(=O)c4c(C)n(CC(C)(C)O)n(-c5ccccc5)c4=O)nc3)ccnc2c1", "KB-3-1", "max response", "3.31% (inactive)"],
  ["COc1ccc(Cc2ccc(NC(N)=O)cc2)cc1-c1cccc(Cl)c1", "KB-3-1", "max response", "-9.2% (inactive)"],
  ["NC(=O)NN=Cc1ccc([N+](=O)[O-])o1", "KB-3-1", "max response", "2.76% (inactive)"],
  ["COc1ccc2cccc(CCNC(C)=O)c2c1", "KB-3-1", "max response", "2.52% (inactive)"],
  ["CC(=O)CCCCn1c(=O)c2c(ncn2C)n(C)c1=O", "KB-3-1", "max response", "-13.9% (inactive)"]
]}
